System: LC-2-ad
Test Summary: relative viability (nuclei count vs DMSO), 5 days (fraction); higher = more cells survive
Condition Description: first compound 4 µM
Readout: relative viability

>  <Molecule>
Cc1sc2c(c1C)C(c1ccc(Cl)cc1)=N[C@@H](CC(=O)OC(C)(C)C)c1nnc(C)n1-2 [JQ1] + COc1cc2c(Oc3ccc(NC(=O)C4(C(=O)Nc5ccc(F)cc5)CC4)cc3F)ccnc2cc1OCCCN1CCOCC1 [Foretinib] (partner 0.25 µM)

>  <Observed>
0.266

$$$$
>  <Molecule>
Cc1sc2c(c1C)C(c1ccc(Cl)cc1)=N[C@@H](CC(=O)OC(C)(C)C)c1nnc(C)n1-2 [JQ1] + N=C(N)NC(=N)NCCc1ccccc1 [Phenformin] (partner 250 µM)

>  <Observed>
0.294

$$$$
>  <Molecule>
Cc1sc2c(c1C)C(c1ccc(Cl)cc1)=N[C@@H](CC(=O)OC(C)(C)C)c1nnc(C)n1-2 [JQ1] + CS(=O)(=O)N1CCN(Cc2cc3nc(-c4cccc5[nH]ncc45)nc(N4CCOCC4)c3s2)CC1 [Pictilisib] (partner 1 µM)

>  <Observed>
0.117

$$$$
>  <Molecule>
Cc1sc2c(c1C)C(c1ccc(Cl)cc1)=N[C@@H](CC(=O)OC(C)(C)C)c1nnc(C)n1-2 [JQ1] + C[C@@H](Oc1cc(-c2cnn(C3CCNCC3)c2)cnc1N)c1c(Cl)ccc(F)c1Cl [Crizotinib] (partner 1 µM)

>  <Observed>
0.258

$$$$

----------
Test system: NCI-H2009
Test Summary: relative viability (nuclei count vs DMSO), 5 days (fraction); higher = more cells survive
Condition Description: first compound 0.5 µM
Reported relative viability values for the following molecules.

>  <Molecule>
Nc1ccn([C@@H]2O[C@H](CO)[C@@H](O)[C@@H]2O)c(=O)n1 [Cytarabine] + O=C(CCCCCCC(=O)Nc1ccccc1)NO [Vorinostat] (partner 1 µM)

>  <relative viability>
0.198

$$$$
>  <Molecule>
Nc1ccn([C@@H]2O[C@H](CO)[C@@H](O)[C@@H]2O)c(=O)n1 [Cytarabine] + CC(C)C[C@H](NC(=O)[C@H](Cc1ccccc1)NC(=O)c1cnccn1)B(O)O [Bortezomib] (partner 0.002 µM)

>  <relative viability>
0.311

$$$$
>  <Molecule>
Nc1ccn([C@@H]2O[C@H](CO)[C@@H](O)[C@@H]2O)c(=O)n1 [Cytarabine] + Cc1nc(Nc2ncc(C(=O)Nc3c(C)cccc3Cl)s2)cc(N2CCN(CCO)CC2)n1 [Dasatinib] (partner 0.075 µM)

>  <relative viability>
0.146

$$$$

----------
Reported relative viability values for the following molecules.
Tested on: NCI-H1355
Test Summary: relative viability (nuclei count vs DMSO), 5 days (fraction); higher = more cells survive
Condition Description: first compound 0.02 µM

>  <Molecule>
CC(=O)O[C@@]12CO[C@@H]1C[C@H](O)[C@@]1(C)C(=O)[C@H](O)C3=C(C)[C@@H](OC(=O)[C@H](O)[C@@H](NC(=O)OC(C)(C)C)c4ccccc4)C[C@@](O)([C@@H](OC(=O)c4ccccc4)[C@H]21)C3(C)C [Docetaxel] + Nc1nc2[nH]cc(CCc3ccc(C(=O)N[C@@H](CCC(=O)O)C(=O)O)cc3)c2c(=O)[nH]1 [Pemetrexed] (partner 0.2 µM)

>  <relative viability>
0.198

$$$$
>  <Molecule>
CC(=O)O[C@@]12CO[C@@H]1C[C@H](O)[C@@]1(C)C(=O)[C@H](O)C3=C(C)[C@@H](OC(=O)[C@H](O)[C@@H](NC(=O)OC(C)(C)C)c4ccccc4)C[C@@](O)([C@@H](OC(=O)c4ccccc4)[C@H]21)C3(C)C [Docetaxel] + CC(C)C[C@H](NC(=O)[C@H](Cc1ccccc1)NC(=O)c1cnccn1)B(O)O [Bortezomib] (partner 0.002 µM)

>  <relative viability>
0.224

$$$$
>  <Molecule>
CC(=O)O[C@@]12CO[C@@H]1C[C@H](O)[C@@]1(C)C(=O)[C@H](O)C3=C(C)[C@@H](OC(=O)[C@H](O)[C@@H](NC(=O)OC(C)(C)C)c4ccccc4)C[C@@](O)([C@@H](OC(=O)c4ccccc4)[C@H]21)C3(C)C [Docetaxel] + COc1cccc2cc(-c3nc([C@H]4CC[C@H](C(=O)O)CC4)n4ncnc(N)c34)[nH]c12 [OSI-027] (partner 0.5 µM)

>  <relative viability>
0.198

$$$$

----------
Reported relative viability values for the following molecules.
System: NCI-H1792
Test Summary: relative viability (nuclei count vs DMSO), 5 days (fraction); higher = more cells survive
Condition Description: first compound 1.265 µM
Readout: relative viability

>  <Molecule>
Cc1sc2c(c1C)C(c1ccc(Cl)cc1)=N[C@@H](CC(=O)OC(C)(C)C)c1nnc(C)n1-2 [JQ1] + CC(C)C[C@H](NC(=O)[C@H](Cc1ccccc1)NC(=O)c1cnccn1)B(O)O [Bortezomib] (partner 0.002 µM)

>  <Test System>
NCI-H1792

>  <Observed>
0.657

$$$$
>  <Molecule>
Cc1sc2c(c1C)C(c1ccc(Cl)cc1)=N[C@@H](CC(=O)OC(C)(C)C)c1nnc(C)n1-2 [JQ1] + Nc1nc2[nH]cc(CCc3ccc(C(=O)N[C@@H](CCC(=O)O)C(=O)O)cc3)c2c(=O)[nH]1 [Pemetrexed] (partner 0.2 µM)

>  <Test System>
NCI-H1792

>  <Observed>
0.15

$$$$
>  <Molecule>
Cc1sc2c(c1C)C(c1ccc(Cl)cc1)=N[C@@H](CC(=O)OC(C)(C)C)c1nnc(C)n1-2 [JQ1] + C[C@@H](Oc1cc(-c2cnn(C3CCNCC3)c2)cnc1N)c1c(Cl)ccc(F)c1Cl [Crizotinib] (partner 1 µM)

>  <Test System>
NCI-H1792

>  <Observed>
0.768

$$$$
>  <Molecule>
Cc1sc2c(c1C)C(c1ccc(Cl)cc1)=N[C@@H](CC(=O)OC(C)(C)C)c1nnc(C)n1-2 [JQ1] + COc1cccc2cc(-c3nc([C@H]4CC[C@H](C(=O)O)CC4)n4ncnc(N)c34)[nH]c12 [OSI-027] (partner 0.5 µM)

>  <Test System>
NCI-H1792

>  <Observed>
0.497

$$$$

----------
Reported relative viability values for the following compounds.
Tested on: LCLC-103H
Test Summary: relative viability (nuclei count vs DMSO), 5 days (fraction); higher = more cells survive
Condition Description: first compound 8 µM
Readout: relative viability

>  <Compound>
O=c1[nH]c2ccccc2n1C1CCN(CCCC(c2ccc(F)cc2)c2ccc(F)cc2)CC1 [Pimozide] + CS(=O)(=O)N1CCN(Cc2cc3nc(-c4cccc5[nH]ncc45)nc(N4CCOCC4)c3s2)CC1 [Pictilisib] (partner 1 µM)

>  <Test System>
LCLC-103H

>  <Observed>
0.528

$$$$
>  <Compound>
O=c1[nH]c2ccccc2n1C1CCN(CCCC(c2ccc(F)cc2)c2ccc(F)cc2)CC1 [Pimozide] + COc1cc2c(Oc3ccc(NC(=O)C4(C(=O)Nc5ccc(F)cc5)CC4)cc3F)ccnc2cc1OCCCN1CCOCC1 [Foretinib] (partner 0.25 µM)

>  <Test System>
LCLC-103H

>  <Observed>
0.591

$$$$
>  <Compound>
O=c1[nH]c2ccccc2n1C1CCN(CCCC(c2ccc(F)cc2)c2ccc(F)cc2)CC1 [Pimozide] + C[C@@H](Oc1cc(-c2cnn(C3CCNCC3)c2)cnc1N)c1c(Cl)ccc(F)c1Cl [Crizotinib] (partner 1 µM)

>  <Test System>
LCLC-103H

>  <Observed>
1.12

$$$$
>  <Compound>
O=c1[nH]c2ccccc2n1C1CCN(CCCC(c2ccc(F)cc2)c2ccc(F)cc2)CC1 [Pimozide] + COc1cccc2cc(-c3nc([C@H]4CC[C@H](C(=O)O)CC4)n4ncnc(N)c34)[nH]c12 [OSI-027] (partner 0.5 µM)

>  <Test System>
LCLC-103H

>  <Observed>
0.423

$$$$

----------
Tested on: SK-MES-1
Test Summary: relative viability (nuclei count vs DMSO), 5 days (fraction); higher = more cells survive
Condition Description: first compound 5 µM

>  <Compound>
O=C(O)CCCCC(CCSCc1ccccc1)SCc1ccccc1 (centres undefined) [CPI-613] + C[C@@H](Oc1cc(-c2cnn(C3CCNCC3)c2)cnc1N)c1c(Cl)ccc(F)c1Cl [Crizotinib] (partner 1 µM)

>  <Test System>
SK-MES-1

>  <relative viability>
0.918

$$$$
>  <Compound>
O=C(O)CCCCC(CCSCc1ccccc1)SCc1ccccc1 (centres undefined) [CPI-613] + Cc1nc(NC(=O)N2CCC[C@H]2C(N)=O)sc1-c1ccnc(C(C)(C)C(F)(F)F)c1 [Alpelisib] (partner 2 µM)

>  <Test System>
SK-MES-1

>  <relative viability>
0.894

$$$$
>  <Compound>
O=C(O)CCCCC(CCSCc1ccccc1)SCc1ccccc1 (centres undefined) [CPI-613] + CCNC(=O)c1noc(-c2cc(C(C)C)c(O)cc2O)c1-c1ccc(CN2CCOCC2)cc1 [Luminespib] (partner 0.01 µM)

>  <Test System>
SK-MES-1

>  <relative viability>
0.772

$$$$
>  <Compound>
O=C(O)CCCCC(CCSCc1ccccc1)SCc1ccccc1 (centres undefined) [CPI-613] + CC1(C)CCC(c2ccc(Cl)cc2)=C(CN2CCN(c3ccc(C(=O)NS(=O)(=O)c4ccc(N[C@H](CCN5CCOCC5)CSc5ccccc5)c(S(=O)(=O)C(F)(F)F)c4)cc3)CC2)C1 [Navitoclax] (partner 0.5 µM)

>  <Test System>
SK-MES-1

>  <relative viability>
1.08

$$$$
